- target entity: GST-Nv-NF-kB (Cys allele) (Nematostella vectensis, UniProt E5G601 2-411)
- Sequence: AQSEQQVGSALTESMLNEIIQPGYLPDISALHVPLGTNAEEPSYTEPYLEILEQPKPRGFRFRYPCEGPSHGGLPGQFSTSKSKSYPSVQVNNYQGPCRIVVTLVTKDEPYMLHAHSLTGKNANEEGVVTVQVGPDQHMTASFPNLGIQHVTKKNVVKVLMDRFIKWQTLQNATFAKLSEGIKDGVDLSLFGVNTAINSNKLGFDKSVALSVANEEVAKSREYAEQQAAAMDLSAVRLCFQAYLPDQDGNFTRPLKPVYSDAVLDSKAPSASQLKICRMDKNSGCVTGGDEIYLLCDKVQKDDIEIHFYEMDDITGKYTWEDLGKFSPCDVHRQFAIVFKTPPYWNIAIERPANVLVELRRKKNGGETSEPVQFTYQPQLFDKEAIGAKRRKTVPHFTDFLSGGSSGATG
- protocol description: protein-binding microarray (PBM); PBM: ~300 nM protein, 6 mM HEPES pH 7.8, 80 mM KCl, 0.5 mM EDTA, 0.5 mM EGTA, 6% glycerol, 35 ng/ul poly-dIdC, 1% milk, 1 h, room temperature; high values mean tight binding
- recorded conditions: dsDNA, one strand shown
binding signal of 5 z-score or higher: met. Under 5 z-score: not met.

Solved cases below.
[[record]]
sequence_chain = "CCGATTAACATCAAGAATTCCCATGATGTTAATCGGGTCTTGATTCGCTTGACGCTGCTG"
class_label = "met"

[[record]]
sequence_chain = "CCGATTAACATCATGCCCGGGAATGATGTTAATCGGGTCTTGATTCGCTTGACGCTGCTG"
class_label = "not met"

[[record]]
sequence_chain = "CCGATTAACATCACATACTCCCCTGATGTTAATCGGGTCTTGATTCGCTTGACGCTGCTG"
class_label = "not met"

[[record]]
sequence_chain = "CCGATTAACATCAGCAAATCCCCTGATGTTAATCGGGTCTTGATTCGCTTGACGCTGCTG"
class_label = "met"


Turning now to a further record.
Check the entry CCGATTAACATCAGGGGGCGCACTGATGTTAATCGGGTCTTGATTCGCTTGACGCTGCTG : does binding signal equal or exceed 5 z-score?
not met

---

- target entity: GST-Dm-Relish (Drosophila melanogaster, UniProt Q94527 99-473)
- Sequence: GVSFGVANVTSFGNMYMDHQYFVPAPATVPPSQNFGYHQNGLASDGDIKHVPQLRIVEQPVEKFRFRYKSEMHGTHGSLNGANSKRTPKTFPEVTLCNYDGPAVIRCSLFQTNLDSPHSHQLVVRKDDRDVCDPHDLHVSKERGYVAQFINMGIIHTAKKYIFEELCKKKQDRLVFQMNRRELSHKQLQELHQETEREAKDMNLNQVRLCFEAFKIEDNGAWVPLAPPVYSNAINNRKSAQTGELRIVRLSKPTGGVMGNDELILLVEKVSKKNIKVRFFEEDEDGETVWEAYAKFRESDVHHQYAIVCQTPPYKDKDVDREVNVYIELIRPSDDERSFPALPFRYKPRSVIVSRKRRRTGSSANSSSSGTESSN
- protocol description: protein-binding microarray (PBM); PBM: ~300 nM protein, 6 mM HEPES pH 7.8, 80 mM KCl, 0.5 mM EDTA, 0.5 mM EGTA, 6% glycerol, 35 ng/ul poly-dIdC, 1% milk, 1 h, room temperature; high values mean tight binding
- recorded conditions: dsDNA, one strand shown
binding signal of 5 z-score or higher: fulfilled. Under 5 z-score: not fulfilled.

Solved cases below.
[[record]]
sequence_chain = "CCGATTAACATCAGGGGGGGTGATGATGTTAATCGGGTCTTGATTCGCTTGACGCTGCTG"
class_label = "not fulfilled"

[[record]]
sequence_chain = "CCGATTAACATCAGGGGGTTACATGATGTTAATCGGGTCTTGATTCGCTTGACGCTGCTG"
class_label = "fulfilled"


Check the entry CCGATTAACATCACGGGGGGGAATGATGTTAATCGGGTCTTGATTCGCTTGACGCTGCTG : does binding signal equal or exceed 5 z-score?
fulfilled

Check the entry CCGATTAACATCAGACCTTCCCCTGATGTTAATCGGGTCTTGATTCGCTTGACGCTGCTG : does binding signal equal or exceed 5 z-score?
not fulfilled

Check the entry CCGATTAACATCAAGGGATTTTCTGATGTTAATCGGGTCTTGATTCGCTTGACGCTGCTG : does binding signal equal or exceed 5 z-score?
fulfilled

Check the entry CCGATTAACATCACAGAATCCCCTGATGTTAATCGGGTCTTGATTCGCTTGACGCTGCTG : does binding signal equal or exceed 5 z-score?
fulfilled

Check the entry CCGATTAACATCACGGGATTTACTGATGTTAATCGGGTCTTGATTCGCTTGACGCTGCTG : does binding signal equal or exceed 5 z-score?
fulfilled

Check the entry CCGATTAACATCACCTTGAACGGTGATGTTAATCGGGTCTTGATTCGCTTGACGCTGCTG : does binding signal equal or exceed 5 z-score?
not fulfilled

---

- target entity: GST-Nv-NF-kB (Cys allele) (Nematostella vectensis, UniProt E5G601 2-411)
- Sequence: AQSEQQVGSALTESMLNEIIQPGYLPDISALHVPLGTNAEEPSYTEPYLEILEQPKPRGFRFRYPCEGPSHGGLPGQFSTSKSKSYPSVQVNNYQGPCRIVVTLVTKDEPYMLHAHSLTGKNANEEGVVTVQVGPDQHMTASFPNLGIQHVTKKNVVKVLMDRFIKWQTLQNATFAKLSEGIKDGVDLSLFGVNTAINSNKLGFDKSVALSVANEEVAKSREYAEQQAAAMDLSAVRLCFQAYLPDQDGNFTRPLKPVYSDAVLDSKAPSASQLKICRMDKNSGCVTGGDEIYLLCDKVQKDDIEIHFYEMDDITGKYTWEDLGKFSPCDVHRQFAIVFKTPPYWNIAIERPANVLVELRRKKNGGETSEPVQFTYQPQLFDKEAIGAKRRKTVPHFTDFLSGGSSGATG
- protocol description: protein-binding microarray (PBM); PBM: ~300 nM protein, 6 mM HEPES pH 7.8, 80 mM KCl, 0.5 mM EDTA, 0.5 mM EGTA, 6% glycerol, 35 ng/ul poly-dIdC, 1% milk, 1 h, room temperature; high values mean tight binding
- recorded conditions: dsDNA, one strand shown
measurement name: log10 of binding signal (log10 of the value in z-score)
Values are log10 of binding signal in z-score.

Some sequences with recorded log10 of binding signal:
[[record]]
sequence_chain = "CCGATTAACATCAGGGGACGCACTGATGTTAATCGGGTCTTGATTCGCTTGACGCTGCTG"
target_entity = "GST-Nv-NF-kB (Cys allele) (Nematostella vectensis, UniProt E5G601 2-411)"
measured_value = 0.62

[[record]]
sequence_chain = "CCGATTAACATCAAAATTCCCCGTGATGTTAATCGGGTCTTGATTCGCTTGACGCTGCTG"
target_entity = "GST-Nv-NF-kB (Cys allele) (Nematostella vectensis, UniProt E5G601 2-411)"
measured_value = 1.05

[[record]]
sequence_chain = "CCGATTAACATCAAAAAATACCCTGATGTTAATCGGGTCTTGATTCGCTTGACGCTGCTG"
target_entity = "GST-Nv-NF-kB (Cys allele) (Nematostella vectensis, UniProt E5G601 2-411)"
measured_value = 0.99

[[record]]
sequence_chain = "CCGATTAACATCAATTTTCCCAATGATGTTAATCGGGTCTTGATTCGCTTGACGCTGCTG"
target_entity = "GST-Nv-NF-kB (Cys allele) (Nematostella vectensis, UniProt E5G601 2-411)"
measured_value = 0.59

[[record]]
sequence_chain = "CCGATTAACATCAGGGGCGTTTATGATGTTAATCGGGTCTTGATTCGCTTGACGCTGCTG"
target_entity = "GST-Nv-NF-kB (Cys allele) (Nematostella vectensis, UniProt E5G601 2-411)"
measured_value = 0.54


The reported value for CCGATTAACATCAGGGAACTACATGATGTTAATCGGGTCTTGATTCGCTTGACGCTGCTG in terms of log10 of binding signal is 0.04

---

- target entity: GST-Nv-NF-kB (Ser allele) (Nematostella vectensis, UniProt A7UNT2 2-411)
- Sequence: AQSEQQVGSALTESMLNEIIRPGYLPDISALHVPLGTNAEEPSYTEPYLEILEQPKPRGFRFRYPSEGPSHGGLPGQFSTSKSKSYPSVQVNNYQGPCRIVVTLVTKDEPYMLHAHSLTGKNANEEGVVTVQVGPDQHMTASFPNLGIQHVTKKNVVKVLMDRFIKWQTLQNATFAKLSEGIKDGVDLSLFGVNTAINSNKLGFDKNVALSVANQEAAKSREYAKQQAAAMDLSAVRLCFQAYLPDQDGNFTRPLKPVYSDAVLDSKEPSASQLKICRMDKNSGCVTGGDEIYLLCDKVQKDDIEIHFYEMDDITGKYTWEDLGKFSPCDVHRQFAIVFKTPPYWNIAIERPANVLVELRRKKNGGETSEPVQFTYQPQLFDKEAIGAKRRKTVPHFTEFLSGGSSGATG
- protocol description: protein-binding microarray (PBM); PBM: ~300 nM protein, 6 mM HEPES pH 7.8, 80 mM KCl, 0.5 mM EDTA, 0.5 mM EGTA, 6% glycerol, 35 ng/ul poly-dIdC, 1% milk, 1 h, room temperature; Ap Aiptasia and Nv Nematostella (sea anemones) / Co Capsaspora / Aq Amphimedon (sponge) / Dm Drosophila / Hu human; RHD is the Rel homology domain; high values mean tight binding
- recorded conditions: dsDNA, one strand shown
Mark class 1 for binding signal under 5 z-score, class 0 if at or over.

[[record]]
sequence_chain = "CCGATTAACATCAGGGGGGTAACTGATGTTAATCGGGTCTTGATTCGCTTGACGCTGCTG"
class_label = "class 1"

[[record]]
sequence_chain = "CCGATTAACATCAACCAATTCCCTGATGTTAATCGGGTCTTGATTCGCTTGACGCTGCTG"
class_label = "class 1"

[[record]]
sequence_chain = "CCGATTAACATCAAGGGGGTACCTGATGTTAATCGGGTCTTGATTCGCTTGACGCTGCTG"
class_label = "class 1"

[[record]]
sequence_chain = "CCGATTAACATCAAGGGGGGATGTGATGTTAATCGGGTCTTGATTCGCTTGACGCTGCTG"
class_label = "class 0"

[[record]]
sequence_chain = "CCGATTAACATCAATTTTTCCCCTGATGTTAATCGGGTCTTGATTCGCTTGACGCTGCTG"
class_label = "class 0"


Below 5 z-score on binding signal? Entry CCGATTAACATCACAATATCCCCTGATGTTAATCGGGTCTTGATTCGCTTGACGCTGCTG
class 0

Below 5 z-score on binding signal? Entry CCGATTAACATCAGGGGAAACCCTGATGTTAATCGGGTCTTGATTCGCTTGACGCTGCTG
class 0

Below 5 z-score on binding signal? Entry CCGATTAACATCAGGGGAAATTATGATGTTAATCGGGTCTTGATTCGCTTGACGCTGCTG
class 0

Below 5 z-score on binding signal? Entry CCGATTAACATCAGGGGATCACCTGATGTTAATCGGGTCTTGATTCGCTTGACGCTGCTG
class 0

Below 5 z-score on binding signal? Entry CCGATTAACATCAAGAGATCCCCTGATGTTAATCGGGTCTTGATTCGCTTGACGCTGCTG
class 0

Below 5 z-score on binding signal? Entry CCGATTAACATCAGGGGGATAACTGATGTTAATCGGGTCTTGATTCGCTTGACGCTGCTG
class 0

Below 5 z-score on binding signal? Entry CCGATTAACATCAAATATCCCCTTGATGTTAATCGGGTCTTGATTCGCTTGACGCTGCTG
class 0

Below 5 z-score on binding signal? Entry CCGATTAACATCAGGGGAATACATGATGTTAATCGGGTCTTGATTCGCTTGACGCTGCTG
class 0

Below 5 z-score on binding signal? Entry CCGATTAACATCAGTAAATCCCATGATGTTAATCGGGTCTTGATTCGCTTGACGCTGCTG
class 1

Below 5 z-score on binding signal? Entry CCGATTAACATCAACCCCCCCCATGATGTTAATCGGGTCTTGATTCGCTTGACGCTGCTG
class 1

Below 5 z-score on binding signal? Entry CCGATTAACATCAAAATTCCCTTTGATGTTAATCGGGTCTTGATTCGCTTGACGCTGCTG
class 0

Below 5 z-score on binding signal? Entry CCGATTAACATCAGAATCCCCCCTGATGTTAATCGGGTCTTGATTCGCTTGACGCTGCTG
class 0

Below 5 z-score on binding signal? Entry CCGATTAACATCAAAAGAACCCCTGATGTTAATCGGGTCTTGATTCGCTTGACGCTGCTG
class 1

Below 5 z-score on binding signal? Entry CCGATTAACATCACTTTTTTCCCTGATGTTAATCGGGTCTTGATTCGCTTGACGCTGCTG
class 0

Below 5 z-score on binding signal? Entry CCGATTAACATCAGGCAATCCCCTGATGTTAATCGGGTCTTGATTCGCTTGACGCTGCTG
class 0

Below 5 z-score on binding signal? Entry CCGATTAACATCAGGGGGGCGCATGATGTTAATCGGGTCTTGATTCGCTTGACGCTGCTG
class 1

Below 5 z-score on binding signal? Entry CCGATTAACATCAAGGGGGAAATTGATGTTAATCGGGTCTTGATTCGCTTGACGCTGCTG
class 0

Below 5 z-score on binding signal? Entry CCGATTAACATCAGGGGAAGTCATGATGTTAATCGGGTCTTGATTCGCTTGACGCTGCTG
class 0

Below 5 z-score on binding signal? Entry CCGATTAACATCAAAATCCCGGGTGATGTTAATCGGGTCTTGATTCGCTTGACGCTGCTG
class 1
